# System: p53 binding sequence duplex DNA
# METHOD_DESCRIPTION: Rotor fluorescence with p53 binding sequence duplex DNA (intercalation)
# CONDITION: FIG. 7
TEST_READOUT: Rotor:DNA ratio at saturation of fluorescence intensity (× rotor)
Numbers only, in × rotor.

C[n+]1c(/C=C2/C=CN(CCCN)c3ccccc32)sc2ccccc21
15

Each molecule below has a recorded value; state its Rotor:DNA ratio at saturation of fluorescence intensity.
1. CN(C)c1ccc2cc3ccc(N(C)C)c(/C=C(\C#N)C(=O)O)c3nc2c1
2. C[n+]1ccc(/C=C/c2ccc(-n3c4ccc(/C=C/c5cc[n+](C)cc5)cc4c4cc(/C=C/c5cc[n+](C)cc5)ccc43)cc2)cc1
3. C[n+]1ccc(/C=C/c2ccc3c(c2)c2cc(/C=C/c4cc[n+](C)cc4)ccc2n3-c2ccccc2)cc1

Response:
[0.5, 15, 15]
